Target System: T1, ChlR1-WT (Homo sapiens, UniProt Q96FC9-2 1-906)
T1 sequence: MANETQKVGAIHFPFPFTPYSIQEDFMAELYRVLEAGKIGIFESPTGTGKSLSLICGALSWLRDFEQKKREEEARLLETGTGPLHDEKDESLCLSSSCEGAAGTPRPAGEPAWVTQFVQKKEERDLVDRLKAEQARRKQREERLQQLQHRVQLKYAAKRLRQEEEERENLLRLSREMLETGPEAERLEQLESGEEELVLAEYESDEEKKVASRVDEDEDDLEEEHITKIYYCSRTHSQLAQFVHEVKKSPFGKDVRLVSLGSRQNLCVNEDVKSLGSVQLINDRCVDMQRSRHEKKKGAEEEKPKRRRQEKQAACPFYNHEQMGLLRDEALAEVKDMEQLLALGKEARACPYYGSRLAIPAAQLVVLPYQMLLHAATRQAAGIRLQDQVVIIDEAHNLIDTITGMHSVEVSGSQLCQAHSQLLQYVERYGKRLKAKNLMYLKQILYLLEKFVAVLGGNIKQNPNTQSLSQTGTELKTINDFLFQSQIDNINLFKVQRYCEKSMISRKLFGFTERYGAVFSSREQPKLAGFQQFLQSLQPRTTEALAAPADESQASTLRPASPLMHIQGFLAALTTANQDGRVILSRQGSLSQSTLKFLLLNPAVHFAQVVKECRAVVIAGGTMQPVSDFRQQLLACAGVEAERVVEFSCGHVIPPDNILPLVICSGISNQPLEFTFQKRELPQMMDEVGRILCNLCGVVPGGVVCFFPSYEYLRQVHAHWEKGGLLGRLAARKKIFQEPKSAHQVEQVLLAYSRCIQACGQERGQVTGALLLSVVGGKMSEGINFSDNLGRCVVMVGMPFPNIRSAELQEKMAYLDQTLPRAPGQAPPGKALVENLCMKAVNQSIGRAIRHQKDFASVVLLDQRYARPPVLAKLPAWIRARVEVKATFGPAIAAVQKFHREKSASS
Assay Remarks: fluorescence anisotropy; apparent Kd, no ATP, 21 C, 10 nM DNA; EMSA: 40 mM Tris-HCl pH 7.4, 25 mM KCl, 5 mM MgCl2, 2 mM DTT, 2% glycerol, 100 ng/uL BSA, no ATP, 0.5 nM DNA, room temp 30 min; anisotropy: same buffer, 21 C; filter binding: 25 mM Tris-HCl pH 7.5, 25 mM KOAc, 1 mM Mg(OAc)2, 1 mM DTT, 100 ug/mL BSA, 37 C 30 min
Protocol Conditions: protein: recombinant; tags: FLAG; fork, 19 bp duplex; 5' ssDNA tail 26 nt (DC26) and 3' ssDNA tail 25 nt (TSTEM25)
Value Type: pKd
# pKd is unitless: minus log10 of the molar concentration; print number only

-- ask So what's the measured pKd for this one? Forked duplex (DC26/TSTEM25), fluorescein (dsDNA) DNA 1: TTTTTTTTTTTTTTTTTTTTTTCCCAGTAAAACGACGGCCAGTGC DNA 2: GCACTGGCCGTCGTTTTACGGTCGTGACTGGGAAAACCCTGGCG
-- reply 6.28
